- Assay remarks: DUSP6 inhibitors restoring Erk phosphorylation by chemical complementation, primary imaging in DUSP6-transfected HeLa (AID 609)
- Condition notes: HeLa MKP-3 transfected, phospho-Erk imaging KS statistic; measured here: nuclear c-Myc green intensity z-score; at 10 µM; cells stimulated with TPA for 15 min
Reported endpoint: z-score
Numbers only.

Known results for compounds:
>  <Compound>
CC(=O)c1cc2c(=O)c3ccccc3oc2nc1C

>  <z-score>
1.31

$$$$
>  <Compound>
COc1ccc(C=NCCC2(O)CC(C)N(C)CC2C)cc1 (stereo unspecified)

>  <z-score>
-0.705

$$$$
>  <Compound>
COC(=O)c1ccc(C(=O)OC)c(NC(=O)c2cc3ccccc3o2)c1

>  <z-score>
-0.375

$$$$
>  <Compound>
C[C@]12CC[C@@H]3c4ccc(OS(=O)(=O)O)cc4CC[C@H]3[C@@H]1CCC2=O

>  <z-score>
-0.742

$$$$
>  <Compound>
Cc1coc2c(O)cc3c(c12)OC1(N2CCCCC2)C(=O)NCCCC31 (stereo unspecified)

>  <z-score>
0.13

$$$$

// fetch z-score given entry Cc1csc2nc(CSc3nc4ccccc4o3)cn12
1.14

----------
- Assay remarks: inhibitors of Chlamydomonas gravitaxis, primary screen, whole organism, Chlamydomonas reinhardtii, WT vs cilia-less mutant, absorbance, 96-well (AID 463189);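 further: 0% = wild type cc124 cells in DMSO and 100% = ciliumless bld1 mutant cells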
- Condition notes: OD600 absorbance, 2 days, at 10 µM, stronger effect = higher value
Reported endpoint: inhibition (%)
Give bare numbers, in %.

As a guide, the following entries are already answered.
>  <Compound>
CCN(CC)CCNc1nc(-c2ccco2)c2c(c1C#N)CC(C)(C)OC2

>  <Unit tag>
%

>  <inhibition>
47.8

$$$$
>  <Compound>
ClC(Br)=C(n1cnc2ccccc21)n1cnc2ccccc21

>  <Unit tag>
%

>  <inhibition>
30.5

$$$$
>  <Compound>
C/C(=N\O)C1(C)N(O)C(C)(C)C(c2ccco2)=[N+]1[O-] (centres undefined)

>  <Unit tag>
%

>  <inhibition>
14.5

$$$$
>  <Compound>
Cc1cccc(OCc2nc(C)cc(=O)[nH]2)c1

>  <Unit tag>
%

>  <inhibition>
-4.66

$$$$
>  <Compound>
CCOC(=O)CCC(=O)O[C@H]1[C@H](O[C@@H]2[C@@H](C)[C@H](O[C@H]3C[C@@](C)(OC)[C@@H](O)[C@H](C)O3)[C@@H](C)C(=O)O[C@H](CC)[C@@](C)(O)[C@H](O)[C@@H](C)C(=O)[C@H](C)C[C@@]2(C)O)O[C@H](C)C[C@@H]1N(C)C

>  <Unit tag>
%

>  <inhibition>
64.6

$$$$
>  <Compound>
CC1(C)Cc2c(sc3c4nnnn4c4nnnn4c23)CO1

>  <Unit tag>
%

>  <inhibition>
27.1

$$$$

Record inhibition for all entries; do not skip any.
1. C=CCSc1nnc2n(-c3ccccc3OC)c(=O)c3c4c(sc3n12)CCC4
2. CCN1CCN(c2nc3c(C)cccn3c(=O)c2/C=C(\C#N)S(=O)(=O)c2ccc(C)cc2)CC1

1: 43.3; 2: 14.6

Identify the reported inhibition for the following entry. CC(=Nc1cccc(O)c1)c1sc2ccccc2c1O
-2.68

----------
- Study system: Dual specificity protein phosphatase 6 (Homo sapiens)
- Assay remarks: DUSP6 inhibitors restoring Erk phosphorylation by chemical complementation, primary imaging in DUSP6-transfected HeLa (AID 609);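 on inhibition: phospho-Erk level distribution per well compared with pooled transfected vehicle control wells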
- Condition notes: HeLa MKP-3 transfected, phospho-Erk imaging KS statistic; at 10 µM; stronger effect = higher value; cells stimulated with TPA for 15 min
Reported endpoint: inhibition (%)
One number for each entry, in %.

// worked examples, inhibition included
>  <Compound>
COc1ccc(-c2oc3ncn4nc(Cc5ccccc5)nc4c3c2-c2ccc(OC)cc2)cc1

>  <inhibition, %>
-6.06

$$$$
>  <Compound>
O=C(O)c1cnn2c(C(F)(F)F)cc(-c3ccco3)nc12

>  <inhibition, %>
9.39

$$$$
>  <Compound>
c1ccc2c(c1)[nH]c1c(N3CCC4(CC3)OCCO4)ncnc12

>  <inhibition, %>
-6.59

$$$$
>  <Compound>
COC(=O)C(NC(C)=O)(Nc1nc2c(s1)CCCC2)C(F)(F)F (stereo not given)

>  <inhibition, %>
5.42

$$$$
>  <Compound>
COc1ccc(NS(=O)(=O)c2ccc(N)cc2)nn1

>  <inhibition, %>
3.45

$$$$
>  <Compound>
Cn1ncc(N=Cc2ccccc2)c1C(N)=O

>  <inhibition, %>
18.6

$$$$

Report inhibition for each item below.
1. COc1cc(OC)cc(C(=O)N2CCC(N3CCN(c4ccccc4)CC3)CC2)c1
2. O=C(O)c1ccccc1S

12.7
21.2

Here are 4 compounds. What values of inhibition were reported for them?
1. N#CC1=C(C=Nc2ccccc2O)CCC1
2. COc1cc(OC)cc(C(=O)N2CCC(N3CCCCCC3)CC2)c1
3. Cc1ccc2[nH]c3c(N4CCCCCC4)ncnc3c2c1
4. CCSc1nc(N)c(C#N)c(-c2ccccc2Cl)c1C#N

1: -8.95; 2: 32.7; 3: -3.5; 4: -5.89

# return inhibition for each item in the list
1. COc1cc2nc(N3CCN(C(=O)c4ccco4)CC3)nc(N)c2cc1OC
2. C=COC(=O)CSc1nc(-c2cccs2)ccc1C#N
3. O=C(NC1CCCCC1)Nn1c(-c2ccccc2)nc2ccccc2c1=O
4. Oc1ccc(C=Nc2ccc3ncccc3c2)c(O)c1
5. Cc1ccc(SCc2c(C#N)c3ccccc3n2C)cc1
6. CCOC(=O)N1CCC(=C2c3ccc(Cl)cc3CCc3cccnc32)CC1
7. COC(=O)c1[nH]c2cc(OC)ccc2c1NC(=O)CCN1CCCC(C)(C)C1
8. OCC(O)CN1CCN(c2ccccc2)CC1 (stereo not given)

[9.37, -5.62, -9.53, 3.66, 12.3, 27.1, 7.42, 25.1]
